Where these numbers come from: paper PMC5344419

Target: T1, FKBP8 (FKBP^1-380), amino acids 1-380, lacking the C-terminal trans-membrane helix (UniProt Q14318 1-380)
T1 construct: FKBP8, amino acids 1-380, lacking the C-terminal trans-membrane helix; numbers count on full-length FKBP8 (Arg 184 is Arg 127 in FKBP38 numbering); Non-cleavable C-terminal His6 tag from pDMXV4; also called FKBP8 isoform; not shown: His6, C-terminal, kept
T1 sequence (Q14318 1-380): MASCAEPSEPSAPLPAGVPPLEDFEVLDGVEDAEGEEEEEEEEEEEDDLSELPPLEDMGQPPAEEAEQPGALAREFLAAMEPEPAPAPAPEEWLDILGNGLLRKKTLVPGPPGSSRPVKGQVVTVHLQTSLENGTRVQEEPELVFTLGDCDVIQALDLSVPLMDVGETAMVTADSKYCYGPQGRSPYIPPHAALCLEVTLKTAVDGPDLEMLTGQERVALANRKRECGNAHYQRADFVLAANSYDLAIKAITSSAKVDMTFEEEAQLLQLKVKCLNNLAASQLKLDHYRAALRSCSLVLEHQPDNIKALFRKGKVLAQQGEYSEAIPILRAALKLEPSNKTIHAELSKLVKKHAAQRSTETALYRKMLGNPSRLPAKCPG
Experiment: ITC; 2 mM peptide injected into 50 μM FKBP^1-380 in the cell; ITC200; 20 mM Tris, 300 mM NaCl, 1 mM EDTA pH 7.5
Details: both partners purified
pKd values, listed per item
pKd field: float, defined as -log10 of concentration (mol/L).

Binder	pKd
EDASRMEEVD (the terminal ten amino-acid residues of Hsp90β) [Hsp90β EDASRMEEVD C-terminal peptide]	4.19

Next up:
// sample GSGPTIEEVD (C-terminal peptide of human Hsp70) [Human Hsp70 GSGPTIEEVD C-terminal peptide] , its pKd was 3.83
